src = ChEMBL document CHEMBL3797184

- MEASUREMENT NOTES: Therapeutic index, ratio of cytotoxicity against mouse RAW264.7 cells to antitubercular activity against Mycobacterium tuberculosis H37Rv ATCC 27294
- Assay type: cell-based
- EXPERIMENTAL CONTEXT: read-out: TI
Exercise: state measured selectivity ratio for each of the compounds provided.

Query block: Value lookup for selectivity ratio; key = O=C(c1nc2cc(C(F)(F)F)ccc2s1)N1CCOCC1
Result block: > 60

Query block: Let us now turn to O=C(c1nc2cc(C(F)(F)F)ccc2s1)N1CCSCC1
Result block: > 60

###

- MEASUREMENT NOTES: Cytotoxicity against mouse RAW264.7 cells at 50 ug/ml after 72 hrs by MTT assay
- Format: cell-based
- EXPERIMENTAL CONTEXT: read-out: INH
Strictly below 50% in cytotoxicity at 72 h, 50 ug/ml: yes (1). Otherwise: no (0).

Query block: Given O=C(c1nc2cc(Cl)ccc2s1)N1CCN(C(c2ccccc2)c2ccccc2)CC1 , is recorded cytotoxicity at 72 h, 50 ug/ml strictly lower than 50%?
Result block: no (0)

Query block: Let us now turn to O=C(c1nc2ccccc2s1)N1CCN(c2ccccc2)CC1
Result block: no (0)

Query block: Let us now turn to O=C(c1nc2cc(C(F)(F)F)ccc2s1)N1CCOCC1
Result block: yes (1)

Query block: Let us now turn to O=C(c1nc2ccccc2s1)N1CCN(c2cnccn2)CC1
Result block: no (0)

Query block: Let us now turn to O=C(c1nc2cc(C(F)(F)F)ccc2s1)N1CCN(c2ccncc2)CC1
Result block: yes (1)

Query block: Let us now turn to COc1ccc(N2CCN(C(=O)c3nc4cc(C(F)(F)F)ccc4s3)CC2)cc1
Result block: yes (1)
